Molecular target: ΔF508-CFTR (Homo sapiens, UniProt P13569, DEL508-508)
Construct: expressed in transfected cells
Sequence (P13569 with tags, fused parts or gaps DEL508-508): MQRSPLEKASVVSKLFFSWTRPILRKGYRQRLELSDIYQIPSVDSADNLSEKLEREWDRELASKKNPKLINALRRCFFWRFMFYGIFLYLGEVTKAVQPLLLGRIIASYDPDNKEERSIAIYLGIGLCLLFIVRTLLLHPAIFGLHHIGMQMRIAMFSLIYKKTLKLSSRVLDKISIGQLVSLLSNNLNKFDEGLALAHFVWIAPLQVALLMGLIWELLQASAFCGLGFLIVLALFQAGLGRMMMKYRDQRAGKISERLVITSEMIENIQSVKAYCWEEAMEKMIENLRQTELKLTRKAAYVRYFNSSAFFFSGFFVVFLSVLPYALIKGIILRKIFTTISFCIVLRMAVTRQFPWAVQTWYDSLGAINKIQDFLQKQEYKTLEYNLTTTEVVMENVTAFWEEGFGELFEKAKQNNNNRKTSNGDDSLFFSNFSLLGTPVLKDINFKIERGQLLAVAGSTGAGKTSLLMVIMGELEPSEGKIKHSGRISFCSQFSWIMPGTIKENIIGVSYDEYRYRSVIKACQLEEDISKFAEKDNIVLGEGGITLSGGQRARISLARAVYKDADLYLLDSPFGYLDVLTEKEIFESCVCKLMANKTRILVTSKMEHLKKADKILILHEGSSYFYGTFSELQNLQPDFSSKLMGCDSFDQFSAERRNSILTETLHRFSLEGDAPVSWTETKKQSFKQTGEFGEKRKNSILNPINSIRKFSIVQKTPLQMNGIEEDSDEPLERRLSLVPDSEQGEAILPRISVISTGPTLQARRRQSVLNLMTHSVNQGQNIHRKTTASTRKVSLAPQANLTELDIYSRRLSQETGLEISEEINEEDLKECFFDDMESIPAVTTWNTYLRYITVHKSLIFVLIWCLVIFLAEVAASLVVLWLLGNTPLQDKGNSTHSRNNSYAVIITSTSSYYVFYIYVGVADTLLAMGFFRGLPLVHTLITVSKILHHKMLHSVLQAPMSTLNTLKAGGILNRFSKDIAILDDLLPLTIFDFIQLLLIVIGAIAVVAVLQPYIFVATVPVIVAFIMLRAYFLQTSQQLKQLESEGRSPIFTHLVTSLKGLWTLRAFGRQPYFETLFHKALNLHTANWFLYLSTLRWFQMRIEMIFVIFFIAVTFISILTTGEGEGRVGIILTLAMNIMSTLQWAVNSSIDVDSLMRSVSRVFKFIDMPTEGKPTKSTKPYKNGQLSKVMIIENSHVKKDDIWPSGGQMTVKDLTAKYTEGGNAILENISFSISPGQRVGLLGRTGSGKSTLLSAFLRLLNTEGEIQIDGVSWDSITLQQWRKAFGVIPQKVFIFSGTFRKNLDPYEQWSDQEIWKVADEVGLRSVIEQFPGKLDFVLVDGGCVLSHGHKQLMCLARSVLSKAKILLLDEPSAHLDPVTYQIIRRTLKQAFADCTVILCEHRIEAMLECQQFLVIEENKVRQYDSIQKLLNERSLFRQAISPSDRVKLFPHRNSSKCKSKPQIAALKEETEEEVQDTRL
Assay: Membrane potential optical assay, identification of correction compounds (single-addition HTS format)
Type: cell-based
Conditions: PercentActivity; ΔF508-CFTR in NIH3T3 mouse fibroblasts; 16-24 hrs with compound; 10 μM forskolin and 20 μM genistein; read-out: BinnedMaxEfficacy
# Emax annotations

Worked cases, answers included:
COMPOUND | RESULT
COc1ccc(C2(C(=O)Nc3ccccn3)CC2)cc1 [Compound 25] | 25 to 100%
CCc1ccc(C)nc1NC(=O)C1(c2ccc3c(c2)OCO3)CC1 [Compound 43] | 25 to 100%
COc1ccc(C2(C(=O)Nc3ccc(C)cn3)CC2)cc1 [Compound 38] | 25 to 100%

// recorded Emax for O=C(Nc1ccccn1)C1(c2ccc3c(c2)OCO3)CC1 [Compound 69] : > 100%

Reported Emax for COc1ccccc1C(OCCO)c1ccc(NC(=O)C2(c3ccc4c(c3)OCO4)CC2)nc1 (centres unmarked) [Compound 57] was > 100%

====

Biological target: ΔF508-CFTR (Homo sapiens, UniProt P13569, DEL508-508)
Construct: expressed in transfected cells
Experiment: Membrane potential optical assay, identification of correction compounds (single-addition HTS format)
Type: cell-based
Details: PercentActivity; ΔF508-CFTR in NIH3T3 mouse fibroblasts; 16-24 hrs with compound; 10 μM forskolin and 20 μM genistein; read-out: BinnedMaxEfficacy
Description: Membrane Potential Optical Methods for Assaying ΔF508-CFTR Modulation Properties of Compounds. The assay utilizes fluorescent voltage sensing dyes to measure changes in membrane potential using a fluorescent plate reader (e.g., FLIPR III, Molecular Devices, Inc.) as a readout for increase in functional ΔF508-CFTR in NIH 3T3 cells. […]
RESULT TYPE: Emax

Consider the following illustrative entries.
COMPOUND | TESTED SYSTEM | Emax
O=C(Nc1ccc(Cc2ccccc2Cl)cn1)C1(c2ccc3c(c2)OCO3)CC1 [Compound 59] | ΔF508-CFTR (Homo sapiens, UniProt P13569, DEL508-508) | > 100%
COc1ccccc1C(OCCCO)c1ccc(NC(=O)C2(c3ccc4c(c3)OCO4)CC2)nc1 (stereo not drawn) [Compound 66] | ΔF508-CFTR (Homo sapiens, UniProt P13569, DEL508-508) | > 100%

Briefly, Emax measured for COc1ccc(C2(C(=O)Nc3cccc(C)n3)CC2)cc1 [Compound 54] : 25 to 100%

====

Biological target: ΔF508-CFTR (Homo sapiens, UniProt P13569, DEL508-508)
Construct: expressed in transfected cells
Assay: Membrane potential optical assay, identification of correction compounds (single-addition HTS format)
Type: cell-based
Details: PercentActivity; ΔF508-CFTR in NIH3T3 mouse fibroblasts; 16-24 hrs with compound; 10 μM forskolin and 20 μM genistein; read-out: BinnedMaxEfficacy
Reported Emax values are given for each entry in this list.

Check out these entries, answers already filled in.
COMPOUND | Emax
COc1ccccc1C(=O)c1ccc(NC(=O)C2(c3ccccc3)CC2)nc1 | 25 to 100%
COc1ccccc1Cc1ccc(NC(=O)C2(c3ccc(Cl)cc3)CC2)nc1 | > 100%

According to the records, this compound O=C(Nc1ccc(Cc2c(Cl)cccc2Cl)cn1)C1(c2ccc3c(c2)OCO3)CC1 displays Emax of > 100%

COCCN1CCN(C(c2ccc(NC(=O)C3(c4ccc5c(c4)OCO5)CC3)nc2)c2ccccc2OC)CC1 (stereo not shown) yielded Emax of 25 to 100%

Sample COc1ccc(C2(C(=O)Nc3ccc(C(=O)c4ccccc4OC)cn3)CC2)cc1OC ; Emax observed: 25 to 100%

The compound identified as Cc1cccc(NC(=O)C2(c3ccc4c(c3)OCO4)CC2)n1 registered its Emax at > 100%

# compound COc1ccccc1C(=O)c1ccc(NC(=O)C2(c3ccc4c(c3)OCO4)CC2)nc1 ; its Emax = > 100%

So, CCc1cccc(NC(=O)C2(c3ccc4c(c3)OCO4)CC2)n1 ? Its Emax was > 100%

According to the records, this compound COc1ccccc1C(OCCN1CCCCC1)c1ccc(NC(=O)C2(c3ccc4c(c3)OCO4)CC2)nc1 (stereo not shown) displays Emax of 25 to 100%

// Emax value for Cc1ccc(NC(=O)C2(c3ccc4c(c3)OCO4)CC2)nc1 : > 100%

For reference, reported Emax for COc1ccc(C2(C(=O)Nc3ccc(C(=O)c4ccccc4OC)cn3)CC2)cc1 stands at > 100%

The compound identified as COc1ccccc1C(c1ccc(NC(=O)C2(c3ccc4c(c3)OCO4)CC2)nc1)N1CC[C@@H](O)C1 (stereo partly shown) registered its Emax at > 100%

Per the record, COc1ccc(Cc2cccc(NC(=O)C3(c4ccc5c(c4)OCO5)CC3)n2)cc1 has Emax of > 100%

# Emax of O=C(Nc1ncccc1OCc1ccccc1)C1(c2ccccc2)CC1 = 25 to 100%

Record summary for Cc1cnc(NC(=O)C2(c3ccc4c(c3)OC(F)(F)O4)CC2)cc1-c1cccc(C(=O)O)c1 : reported Emax = 25 to 100%

Note to self: Emax recorded for CCc1ccnc(NC(=O)C2(c3ccc(OC)cc3)CC2)c1 was 25 to 100%
